test: physchem; conditions: buffer

| compound.string | half-life at 250 µM |
| --- | --- |
| CC(C)c1nnc(/C=C/COC(=O)Nc2ccccc2)nn1 | > 16.7 days |

----------
// reported half-life for each item listed
experiment: physchem; conditions: buffer
result.type: half-life (h)

| compound | result.type | censor.symbol | readout.number |
| --- | --- | --- | --- |
| O=C(NC1CCCC1c1nnc(-c2ccccc2)nn1)Oc1ccccc1 (centres unmarked) | half-life | > | 140 |
| CCN(Cc1nnc(-c2cccc(NC(=O)COCCOCCOCCOCCOCCOCCOCCOCCOCCOCCOC)c2)nn1)C(=O)Oc1ccc(COC(=O)Nc2ccc3c(C)cc(=O)oc3c2)cc1 | half-life | = | 200 |

----------
assay: Stability of tetrazine (TZ) Triggers in a MeCN/PBS mixture

| compound | half-life at 250 µM |
| --- | --- |
| CC(OC(=O)OCc1ccccc1)c1nnc(C(C)OC(=O)OCc2ccccc2)nn1 (centres unmarked) | 6.5 h |
| CC(OC(=O)N(C)Cc1ccccc1)c1nnc(-c2ccc(N)cc2)nn1 (centres unmarked) | > 4800 h |
| O=C(Nc1ccccc1)OC/C=C/c1nnc(-c2ccccc2)nn1 | > 400 h |
| CC(OC(=O)c1ccccc1)c1nnc(C(C)OC(=O)c2ccccc2)nn1 (centres unmarked) | 18 h |
| CC(OC(=O)N(C)Cc1ccccc1)c1nnc(-c2ccc(NC(=O)OC(C)(C)C)cc2)nn1 (centres unmarked) | > 4800 h |
| CC(C)c1nnc(C(C)OC(=O)N(Cc2ccccc2)C(C)C)nn1 (centres unmarked) | 650 h |
| O=C(Oc1ccccc1)N1CCCC1c1nnc(-c2ccccc2)nn1 (centres unmarked) | > 150 h |
| O=C(OCc1nnc(-c2ccccc2)nn1)Oc1ccccc1 | < 4 h |

----------
experiment: Stability of TZ Triggers in 50% mouse serum/PBS; type: in vitro ADME; settings: 50% mouse serum in PBS, 37° C., read-out: Stability t1/2 (converted)

| molecule | half-life at 248 µM |
| --- | --- |
| CC(C)c1nnc(C(C)OC(=O)N(Cc2ccccc2)C(C)C)nn1 (stereo not shown) | 55 h |

----------
test: Reactivity (second order rate constant k2) between TZ Triggers and TCO Activator 4.9 in MeCN at 20° C.; type: physicochemical; details: TZ with TCO in MeCN at 20° C.
# label = rule met if Reactivity k2 < 0.8 M⁻¹ s⁻¹ else rule not met

| molecule | class.label |
| --- | --- |
| CC(OC(=O)N(c1ccccc1)C(C)C)c1nnc(C(C)OC(=O)N(c2ccccc2)C(C)C)nn1 (mixture of isomers) [Compound 2.40] | rule not met |
| CC(C)c1nnc(C(C)OC(=O)N(Cc2ccccc2)C(C)C)nn1 (centres unmarked) [Compound 2.42] | rule met |
| CC(OC(=O)N(C)Cc1ccccc1)c1nnc(-c2ccc(N)cc2)nn1 (centres unmarked) [Compound 2.49] | rule met |
| O=C(NCc1ccccc1)OCc1nnc(COC(=O)NCc2ccccc2)nn1 [Compound 2.4] | rule not met |
| Cc1cc(C)cc(NC(=O)OC(C)c2nnc(-c3ccccc3)nn2)c1 (racemic) [Compound 2.17] | rule not met |
| CC(OC(=O)N(C)c1ccccc1)c1nnc(-c2ccccc2)nn1 (racemic) [Compound 2.22] | rule not met |
| CC(OC(=O)N(C)Cc1ccccc1)c1nnc(-c2ccccc2)nn1 (racemic) [Compound 2.21] | rule not met |

----------
assay: Reactivity (second order rate constant k2) between TZ Triggers and TCO Activator 4.9 in MeCN at 20° C.; assay type: physicochemical; settings: TZ with TCO in MeCN at 20° C.
Answer no (0) if Reactivity k2 is under 1 M⁻¹ s⁻¹, and yes (1) if it is 1 M⁻¹ s⁻¹ or more.

| compound | class.label |
| --- | --- |
| CC(OC(=O)N(C)Cc1ccccc1)c1nnc(-c2ccc(NC(=O)OC(C)(C)C)cc2)nn1 (centres unmarked) | yes (1) |
| CC(C)c1nnc(C(C)OC(=O)N(C)c2ccccc2)nn1 (racemic) | no (0) |
| CN(Cc1ccccc1)C(=O)OCc1nnc(CCN(C)C(=O)OC(C)(C)C)nn1 | yes (1) |
| CC(OC(=O)NCc1ccccc1)c1nnc(C(C)OC(=O)NCc2ccccc2)nn1 (mixture of isomers) | yes (1) |
| CC(C)c1nnc(/C=C/COC(=O)Nc2ccccc2)nn1 | no (0) |
